System: NCI-H1395
Experiment: relative viability (nuclei count vs DMSO), 5 days (fraction); higher = more cells survive
Conditions: first compound 0.1265 µM
measured-property: relative viability
Numbers only.

INSERT INTO assay_data (compound, endpoint_result) VALUES
  ('COc1cc(N2CCC(C(N)=O)CC2)ccc1Nc1nc(N)c(Cl)c(Nc2ccccc2S(=O)(=O)C(C)C)n1 [HG-5-88-01] + CS(=O)(=O)CCNCc1ccc(-c2ccc3ncnc(Nc4ccc(OCc5cccc(F)c5)c(Cl)c4)c3c2)o1 [Lapatinib] (partner 2 µM)', 1);

Can you look up the measured relative viability of C[C@@H]1CN(CC(=O)Nc2ccc3c(c2)Cc2cccc(-c4cc(=O)cc(N5CCOCC5)o4)c2S3)C[C@H](C)O1 + Nc1nc2[nH]cc(CCc3ccc(C(=O)N[C@@H](CCC(=O)O)C(=O)O)cc3)c2c(=O)[nH]1 [Pemetrexed] (partner 0.2 µM) for me? 0.833
